# System: CYP1A
# TEST NAME: in vitro
# TEST PARAMETERS: nude, mouse, pH 7.8, dermal CYP1A activity (% of control group)
Quick reference: activity at 10 min, 10 µM of the listed items.
// units = %; emit number, no label

q: Note activity at 10 min, 10 µM for the compound shown: "O=c1c(-c2ccc(O)cc2)coc2cc(O)ccc12"
a: 71.7

New cases:
q: Note activity at 10 min, 10 µM for the compound shown: "O=C(O)c1ccc(O)c(O)c1"
a: 121

q: Note activity at 10 min, 10 µM for the compound shown: O=C(O)/C=C/c1ccccc1 [Trans-cinnamic acid]
a: 110

q: Note activity at 10 min, 10 µM for the compound shown: "C[C@@H]1O[C@@H](OC[C@H]2O[C@@H](Oc3c(-c4ccc(O)c(O)c4)oc4cc(O)cc(O)c4c3=O)[C@H](O)[C@@H](O)[C@@H]2O)[C@H](O)[C@H](O)[C@H]1O"
a: 98.4

q: Note activity at 10 min, 10 µM for the compound shown: "CC12CCC(CC1)C(C)(C)O2"
a: 130

q: Note activity at 10 min, 10 µM for the compound shown: "O=C(O)c1cc(O)c(O)c(O)c1"
a: 107

q: Note activity at 10 min, 10 µM for the compound shown: "COc1ccc(-c2coc3cc(O)ccc3c2=O)cc1"
a: 109

q: Note activity at 10 min, 10 µM for the compound shown: "C[C@@]12C[C@@]3(O)O[C@@H](O1)[C@]1(COC(=O)c4ccccc4)[C@H]3C[C@@]12O[C@@H]1O[C@H](CO)[C@@H](O)[C@H](O)[C@H]1O"
a: 105

---

# Test system: dermal CYP1A
# TEST NAME: Dermal microsomal CYP1A enzymatic activity (7-ethoxyresorufin-O-deethylase), inhibition or enhancement
# TEST PARAMETERS: compound 100 μM; skin microsomes; mean of at least 3 repeats
Quick reference: dermal CYP1A activity (% of control group) of the listed items.
// units = %; emit number, no label

Please review the following examples before continuing.
q: Note dermal CYP1A activity (% of control group) for the compound shown: Oc1cc(O)c2c(c1)O[C@H](c1ccc(O)c(O)c1)[C@@H](O)C2 [(+)-Catechin]
a: 99.99

q: Note dermal CYP1A activity (% of control group) for the compound shown: "O=C(O)[C@H]1O[C@@H](Oc2cc3oc(-c4ccccc4)cc(=O)c3c(O)c2O)[C@H](O)[C@@H](O)[C@@H]1O"
a: 75.91

q: Note dermal CYP1A activity (% of control group) for the compound shown: O=c1cc(-c2ccc(O)c(O)c2)oc2cc(O[C@@H]3O[C@H](CO)[C@@H](O)[C@H](O)[C@H]3O)cc(O)c12 [Luteolin-7-glucoside]
a: 2.53

q: Note dermal CYP1A activity (% of control group) for the compound shown: "C[C@@H]1O[C@@H](O[C@H]2[C@H](Oc3cc(O)c4c(c3)O[C@H](c3ccc(O)cc3)CC4=O)O[C@H](CO)[C@@H](O)[C@@H]2O)[C@H](O)[C@H](O)[C@H]1O"
a: 77.31

q: Note dermal CYP1A activity (% of control group) for the compound shown: "O=c1cc(-c2ccccc2)oc2cc(O)c(O)c(O)c12"
a: 55.82

New cases:
q: Note dermal CYP1A activity (% of control group) for the compound shown: "O=C1C[C@@H](c2ccc(O)cc2)Oc2cc(O)cc(O)c21"
a: 17.26

q: Note dermal CYP1A activity (% of control group) for the compound shown: Oc1cc(O)c2c(c1)O[C@H](c1ccc(O)c(O)c1)[C@H](O)C2 [(−)-Epicatechin]
a: 129.82

q: Note dermal CYP1A activity (% of control group) for the compound shown: "COc1ccc([C@@H]2CC(=O)c3c(O)cc(O[C@@H]4O[C@H](CO[C@@H]5O[C@@H](C)[C@H](O)[C@@H](O)[C@H]5O)[C@@H](O)[C@H](O)[C@H]4O)cc3O2)cc1O"
a: 57.75

q: Note dermal CYP1A activity (% of control group) for the compound shown: Oc1cc(O)c2c(c1)O[C@@H](c1ccc(O)c(O)c1)[C@@H](O)C2 [(+)-Epicatechin]
a: 105.09

---

Quick reference: activity at 10 min, 10 µM of the listed items.
# Test system: CYP1A
# TEST NAME: in vitro
# TEST PARAMETERS: nude, mouse, pH 7.8
// units = %; emit number, no label

Please review the following examples before continuing.
q: Note activity at 10 min, 10 µM for the compound shown: "C=CC(=C)CCC=C(C)C"
a: 78.2

q: Note activity at 10 min, 10 µM for the compound shown: "COc1ccc(-c2cc(=O)c3c(O)cc(O[C@@H]4O[C@H](CO[C@@H]5O[C@@H](C)[C@H](O)[C@@H](O)[C@H]5O)[C@@H](O)[C@H](O)[C@H]4O)cc3o2)cc1O"
a: 54.3

q: Note activity at 10 min, 10 µM for the compound shown: "CCCCCCCCCCCCO"
a: 97.2

q: Note activity at 10 min, 10 µM for the compound shown: "CC(C)[C@@H](C)/C=C/[C@@H](C)[C@H]1CC[C@H]2C3=CC=C4C[C@@H](O)CC[C@]4(C)[C@H]3CC[C@]12C"
a: 57.3

q: Note activity at 10 min, 10 µM for the compound shown: CC(=O)OCCCc1ccccc1 [3-Phenyl propyl acetate, 3-phenylpropyl acetate]
a: 89.4

New cases:
q: Note activity at 10 min, 10 µM for the compound shown: "O=c1ccc2ccc(O)cc2o1"
a: 52.7

q: Note activity at 10 min, 10 µM for the compound shown: "O=c1c(-c2ccc(O)cc2)coc2cc(O[C@@H]3O[C@H](CO)[C@@H](O)[C@H](O)[C@H]3O)ccc12"
a: 84.2

q: Note activity at 10 min, 10 µM for the compound shown: "CC1(C)[C@@H](O[C@H]2O[C@H](C(=O)O)[C@@H](O)[C@H](O)[C@H]2O[C@@H]2O[C@H](C(=O)O)[C@@H](O)[C@H](O)[C@H]2O)CC[C@]2(C)[C@H]3C(=O)C=C4[C@@H]5C[C@@](C)(C(=O)O)CC[C@]5(C)CC[C@@]4(C)[C@]3(C)CC[C@@H]12"
a: 102

---

Quick reference: activity at 10 min, 1 µM of the listed items.
# Tested on: CYP1A
# TEST NAME: in vitro
# TEST PARAMETERS: nude, mouse, pH 7.8, dermal CYP1A activity (% of control group)
// units = %; emit number, no label

q: Note activity at 10 min, 1 µM for the compound shown: "O=c1cc(-c2ccc(O)cc2)oc2cc(O)cc(O)c12"
a: 103

New cases:
q: Note activity at 10 min, 1 µM for the compound shown: "O=c1c(O[C@@H]2O[C@H](CO)[C@@H](O)[C@H](O)[C@H]2O)c(-c2ccc(O)c(O)c2)oc2cc(O)cc(O)c12"
a: 112

q: Note activity at 10 min, 1 µM for the compound shown: "CC12CCC(CC1)C(C)(C)O2"
a: 199

q: Note activity at 10 min, 1 µM for the compound shown: "O=c1c(-c2ccc(O)cc2)coc2cc(O)ccc12"
a: 77.5

q: Note activity at 10 min, 1 µM for the compound shown: "O=C(O)c1ccc(O)c(O)c1"
a: 138

q: Note activity at 10 min, 1 µM for the compound shown: "C[C@@]12C[C@@]3(O)O[C@@H](O1)[C@]1(COC(=O)c4ccccc4)[C@H]3C[C@@]12O[C@@H]1O[C@H](CO)[C@@H](O)[C@H](O)[C@H]1O"
a: 91

q: Note activity at 10 min, 1 µM for the compound shown: "COc1ccc(-c2coc3cc(O)ccc3c2=O)cc1"
a: 67

q: Note activity at 10 min, 1 µM for the compound shown: "O=c1cc(-c2ccc(O)c(O)c2)oc2cc(O)cc(O)c12"
a: 59.1

q: Note activity at 10 min, 1 µM for the compound shown: "C[C@@H]1O[C@@H](OC[C@H]2O[C@@H](Oc3c(-c4ccc(O)c(O)c4)oc4cc(O)cc(O)c4c3=O)[C@H](O)[C@@H](O)[C@@H]2O)[C@H](O)[C@H](O)[C@H]1O"
a: 94.1

q: Note activity at 10 min, 1 µM for the compound shown: O=C(O)/C=C/c1ccccc1 [Trans-cinnamic acid]
a: 117

q: Note activity at 10 min, 1 µM for the compound shown: "O=C(O)c1cc(O)c(O)c(O)c1"
a: 102

---

# System: CYP1A
# TEST NAME: in vitro
# TEST PARAMETERS: nude, mouse, pH 7.8, dermal CYP1A activity (% of control group)
QUANTITY: activity at 10 min, 100 µM (%)
// units = %; emit number, no label

Please review the following examples before continuing.
q: Note activity at 10 min, 100 µM for the compound shown: O=c1cc(-c2ccc(O)cc2)oc2cc(O)cc(O)c12 [Apigenin]
a: 76.4

q: Note activity at 10 min, 100 µM for the compound shown: O=C(O)c1cc(O)c(O)c(O)c1 [Gallic acid]
a: 88.2

q: Note activity at 10 min, 100 µM for the compound shown: C[C@@H]1O[C@@H](OC[C@H]2O[C@@H](Oc3c(-c4ccc(O)c(O)c4)oc4cc(O)cc(O)c4c3=O)[C@H](O)[C@@H](O)[C@@H]2O)[C@H](O)[C@H](O)[C@H]1O [Rutin]
a: 59.2

q: Note activity at 10 min, 100 µM for the compound shown: O=c1c(O[C@@H]2O[C@H](CO)[C@@H](O)[C@H](O)[C@H]2O)c(-c2ccc(O)c(O)c2)oc2cc(O)cc(O)c12 [Isoquercitrin]
a: 44.2

q: Note activity at 10 min, 100 µM for the compound shown: CC12CCC(CC1)C(C)(C)O2 [Cineole]
a: 96.4

q: Note activity at 10 min, 100 µM for the compound shown: C[C@@]12C[C@@]3(O)O[C@@H](O1)[C@]1(COC(=O)c4ccccc4)[C@H]3C[C@@]12O[C@@H]1O[C@H](CO)[C@@H](O)[C@H](O)[C@H]1O [Paeoniflorin]
a: 104

q: Note activity at 10 min, 100 µM for the compound shown: O=C(O)/C=C/c1ccccc1 [Trans-cinnamic acid]
a: 86.6

q: Note activity at 10 min, 100 µM for the compound shown: COc1ccc([C@@H]2CC(=O)c3c(O)cc(O)cc3O2)cc1O [Hesperetin]
a: 66

New cases:
q: Note activity at 10 min, 100 µM for the compound shown: COc1ccc(-c2coc3cc(O)ccc3c2=O)cc1 [Formononetin]
a: 85.9
